# reported pIC50; entries follow
Biological target: H. sapiens SLC2A9 variant 2 (GLUT9B) (Homo sapiens)
Experiment: GLUT9 functional assay: uric acid uptake in HEK293T cells, allantoin formation by MS/MS as proxy of GLUT9B inhibition
Assay type: cell-based
Conditions: 15 minute assay; HEK293T cells stably expressing GLUT9B and transiently A. oryzae uricase; uric acid 0.3 mM, 37° C.; read-out: 15 min IC50
pIC50: −log10 of the molar value.
PROPERTY MEASURED: pIC50

* COc1ccc(-c2ncc(CCCC(F)(F)F)nc2N2CCC(C(=O)O)CC2)cc1 [Compound 31] | > 6.30
* CCCCc1cnc(-c2ccc(OC)cc2)c(N2CC3C(C2)C3C(=O)O)n1 (stereo not drawn) [Compound 4] | > 6.30
* CCCCc1cnc(-c2cc(F)c3occc3c2)c(N2CCC(C(=O)O)CC2)n1 [Compound 9] | > 6.30
* CCCCc1cnc(-c2ccc(OC)cc2)c(-c2csc(C(=O)O)n2)c1 [Compound 20] | < 5.70
* O=C(O)C1CCN(c2nc(CCCC(F)(F)F)cnc2-c2ccc3c(c2)OC(F)(F)O3)CC1 [Compound 160] | 5.70 to 6.30
* O=C(O)c1c[nH]c2cc(-c3cc(CCC(F)(F)F)cnc3-c3cc(F)c4occc4c3)ccc12 [Compound 63] | 5.70 to 6.30

* * *

Target: H. sapiens SLC2A9 variant 2 (GLUT9B) (Homo sapiens, UniProt Q9NRM0)
Sequence (Q9NRM0 1-511 isoform Q9NRM0-2): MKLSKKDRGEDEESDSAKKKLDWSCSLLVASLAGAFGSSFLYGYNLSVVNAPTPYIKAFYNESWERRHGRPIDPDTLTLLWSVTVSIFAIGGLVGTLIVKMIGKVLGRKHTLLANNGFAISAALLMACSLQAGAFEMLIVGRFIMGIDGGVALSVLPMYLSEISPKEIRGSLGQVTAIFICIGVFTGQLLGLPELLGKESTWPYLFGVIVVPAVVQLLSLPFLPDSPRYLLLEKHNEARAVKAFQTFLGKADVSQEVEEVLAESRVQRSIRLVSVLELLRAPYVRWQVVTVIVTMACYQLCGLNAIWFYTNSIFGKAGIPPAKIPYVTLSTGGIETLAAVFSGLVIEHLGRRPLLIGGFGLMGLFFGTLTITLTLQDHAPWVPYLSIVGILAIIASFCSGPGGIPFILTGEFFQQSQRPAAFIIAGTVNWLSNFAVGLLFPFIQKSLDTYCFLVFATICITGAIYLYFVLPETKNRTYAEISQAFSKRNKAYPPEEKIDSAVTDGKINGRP
Experiment: GLUT9 functional assay: uric acid uptake in HEK293T cells, allantoin formation by MS/MS as proxy of GLUT9B inhibition
Type: cell-based
Conditions: 60 minute assay; HEK293T cells stably expressing GLUT9B and transiently A. oryzae uricase; uric acid 0.3 mM, 37° C.; read-out: 60 min IC50
pIC50: −log10 of the molar value.
PROPERTY MEASURED: pIC50

- COCCCc1cnc(-c2ccc3c(c2)OCO3)c(N2CC(OC)(C(=O)O)C2)c1: < 5.70
- COCCCc1cnc(-c2cccc3cn(C)nc23)c(N2CCC(C(=O)O)CC2)n1: < 5.70
- COCCCc1cnc(-c2ccc3nccn3n2)c(N2CCC(C(=O)O)CC2)n1: < 5.70

* * *

# reported IC50; entries follow
Target: H. sapiens SLC2A9 variant 2 (GLUT9B) (Homo sapiens, UniProt Q9NRM0)
Experiment: GLUT9 functional assay: uric acid uptake in HEK293T cells, allantoin formation by MS/MS as proxy of GLUT9B inhibition
Type: cell-based
Details: 60 minute assay; HEK293T cells stably expressing GLUT9B and transiently A. oryzae uricase; uric acid 0.3 mM, 37° C.; read-out: 60 min IC50
PROPERTY MEASURED: IC50

- COCCCc1cnc(-c2ccc3c(c2)OCO3)c(N2CCC(C(=O)O)CC2)n1: < 500 nM
- COCCCc1cnc(-c2ccc(SC)cc2)c(N2CCC(C(=O)O)CC2)n1: < 500 nM
- COCCCc1cnc(-c2cc(F)c3occc3c2)c(N2CCC(C(=O)O)C(F)(F)C2)n1 (stereo not drawn): < 500 nM

* * *

Biological target: H. sapiens SLC2A9 variant 2 (GLUT9B) (Homo sapiens, UniProt Q9NRM0)
Experiment: GLUT9 functional assay: uric acid uptake in HEK293T cells, allantoin formation by MS/MS as proxy of GLUT9B inhibition
Format: cell-based
Details: 60 minute assay; HEK293T cells stably expressing GLUT9B and transiently A. oryzae uricase; uric acid 0.3 mM, 37° C.; read-out: 60 min IC50
Procedure: Uric acid stocks (9 mM, Millipore-Sigma, U0881) were generated in 125 mM choline chloride (Millipore-Sigma, C7017) and the concentration was determined at 293 nm using a molar extinction coefficient of 9600 M- ^1 cm- ^1) after collecting the absorbance spectra from 220-350 nm. Allantoin stocks (12 mM Toronto Research Chemicals, A540500) were generated in LCMS grade water (Thermo Scientific, 51140). The concentration of allantoin was determined by qNMR (Michigan State University). […]
PROPERTY MEASURED: IC50

* COCCCc1cnc(-c2cnc3c(c2)ncn3C)c(N2CCC(C(=O)O)CC2)n1 | > 2 µM
* COCCCc1cnc(-c2cc(C(F)(F)F)nn2C)c(N2CCC(C(=O)O)CC2)n1 | > 2 µM
* COCCCc1cnc(-c2ccc3occc3c2)c(N2CCC[C@H](C(=O)O)C2)n1 (single isomer, unassigned) | > 2 µM
* COCCCc1cnc(-c2cccc3nn(C)cc23)c(N2CCC(C(=O)O)CC2)n1 | > 2 µM
* COCCCc1cnc(-c2cc(OC(F)(F)F)c3occc3c2)c(N2CCC(C(=O)O)CC2)n1 | 0.5 to 2 µM
* COCCCc1cnc(-c2cc(F)c3occc3c2)c(N2CCC(C(=O)O)CC2)c1 | < 0.5 µM

* * *

Biological target: H. sapiens SLC2A9 variant 2 (GLUT9B) (Homo sapiens, UniProt Q9NRM0)
Test: GLUT9 functional assay: uric acid uptake in HEK293T cells, allantoin formation by MS/MS as proxy of GLUT9B inhibition
Format: cell-based
Settings: 15 minute assay; HEK293T cells stably expressing GLUT9B and transiently A. oryzae uricase; uric acid 0.3 mM, 37° C.; read-out: 15 min IC50
Experimental: Uric acid stocks (9 mM, Millipore-Sigma, U0881) were generated in 125 mM choline chloride (Millipore-Sigma, C7017) and the concentration was determined at 293 nm using a molar extinction coefficient of 9600 M- ^1 cm- ^1) after collecting the absorbance spectra from 220-350 nm. Allantoin stocks (12 mM Toronto Research Chemicals, A540500) were generated in LCMS grade water (Thermo Scientific, 51140). The concentration of allantoin was determined by qNMR (Michigan State University). […]
# reported IC50; entries follow
PROPERTY MEASURED: IC50

• O=C(O)C1(O)CCN(c2nc(CCCC(F)(F)F)cnc2-c2ccc3occc3c2)CC1 [Compound 174] = 500 to 2000 nM
• COCCCc1cnc(-c2ccc3c(c2)OCO3)c(N2CC(C(=O)O)C2)n1 [Compound 176] = > 2000 nM
• O=C(O)CC1CCN(c2nc(CCC(F)(F)F)cnc2-c2cc(F)c3occc3c2)C1 (centres unmarked) [Compound 88] = 500 to 2000 nM
• O=C(O)C1CCN(c2nc(CCC(F)(F)F)cnc2-c2cnc3c(c2)CCO3)CC1 [Compound 87] = > 2000 nM
• COc1ccc(-c2nc(Cl)c(COCC(F)(F)F)nc2N2CCC(C(=O)O)CC2)cc1 [Compound 54] = > 2000 nM
• CCCCc1cnc(-c2ccc(OC)cc2)c(N2CCN(CC(=O)O)CC2)n1 [Compound 1] = > 2000 nM
• CCCCc1cnc(-c2ccc(OC)cc2)c(-c2ccc3c(c2)CNC3=O)c1 [Compound 27] = 500 to 2000 nM
• O=C(O)C1CCN(c2nc(CCC(F)(F)F)cnc2-c2ccc3c(c2)OCO3)CC1 [Compound 120] = < 500 nM
• O=c1[nH]c(C2CCN(c3nc(CCC(F)(F)F)cnc3-c3cc(F)c4occc4c3)CC2)no1 [Compound 146] = < 500 nM
• COCCCc1cnc(-c2cc(F)c3occc3c2)c(N2CCC(C(=O)O)CC2)c1 [Compound 168] = < 500 nM
• COCc1cnc(-c2cc(F)c3c(ccn3C)c2)c(N2CCC(C(=O)O)CC2)n1 [Compound 51] = > 2000 nM
• CCCCc1cnc(-c2ccc(OC)cc2)c(N2CCC(C(=O)O)C2)n1 (centres unmarked) [Compound 12] = > 2000 nM
• O=C(O)C1CCN(c2nc(CCC(F)(F)C(F)(F)F)cnc2-c2ccc(OCC3CC3)cc2)CC1 [Compound 154] = 500 to 2000 nM
• COCCCCc1cnc(-c2ccc3c(c2)CCO3)c(N2CCC(C(=O)O)CC2)n1 [Compound 139] = < 500 nM
• O=c1[nH]c(C2CCN(c3nc(COCC(F)(F)F)cnc3-c3cc(F)c4occc4c3)CC2)ns1 [Compound 81] = 500 to 2000 nM
• CN(C)S(=O)(=O)N1CCN(c2nc(CCC(F)(F)F)cnc2-c2ccc3occc3c2)CC1 [Compound 106] = > 2000 nM
• COCCCc1cnc(-c2cc(C(F)(F)F)c3occc3c2)c(N2CCC(C(=O)O)CC2)n1 [Compound 237] = > 2000 nM
• O=C(O)CC1CC2(C1)CN(c1nc(CCC(F)(F)F)cnc1-c1ccc3occc3c1)C2 [Compound 101] = > 2000 nM
• CCCCc1cnc(-c2ccc(OC)cc2)c(-c2ccc3c(c2)COC3=O)n1 [Compound 35] = 500 to 2000 nM
• COCCNc1ccc(-c2ncc(CCC(F)(F)F)nc2N2CCC(C(=O)O)CC2)cc1 [Compound 103] = 500 to 2000 nM
• COCCOc1ccc(-c2ncc(CC(COC)COC)nc2N2CCC(C(=O)O)CC2)cc1 [Compound 155] = > 2000 nM
• O=C(O)C1C2CC1CN(c1nc(CCC(F)(F)F)cnc1-c1cc(F)c3occc3c1)C2 (centres unmarked) [Compound 94] = 500 to 2000 nM
• O=C(O)C1C[C@@H]2CN(c3nc(CCC(F)(F)F)cnc3-c3ccc4occc4c3)C[C@@H]2C1 (some centres unmarked) [Compound 102] = 500 to 2000 nM
• COCC(COC)Cc1cnc(-c2cc(F)c3occc3c2)c(N2CCC(C(=O)O)CC2)n1 [Compound 53] = < 500 nM
• O=C(O)C1CCN(c2nc(COCC(F)(F)F)cnc2-c2ccc(OC3CC3)cc2)CC1 [Compound 75] = > 2000 nM
• CCCCc1cnc(-c2ccc(OC)cc2)c(N2CCC(c3nn[nH]n3)CC2)n1 [Compound 16] = < 500 nM
• O=C(O)C1CCN(c2nc(CCC3CC3)cnc2-c2cc(F)c3occc3c2)CC1 [Compound 73] = < 500 nM
• COCCOc1ccc(-c2ncc(CCC(F)(F)F)nc2N2CCC(C(=O)NS(C)(=O)=O)CC2)cc1 [Compound 70] = 500 to 2000 nM
• CCCCCc1cnc(-c2cc(F)c3occc3c2)c(N2CCC(C(=O)O)CC2)n1 [Compound 147] = < 500 nM
